Target: T1, EsCas13d, nuclease-dead (Eubacterium siraeum, UniProt B0MS50, R295A;H300A;R849A;H854A)
T1 sequence: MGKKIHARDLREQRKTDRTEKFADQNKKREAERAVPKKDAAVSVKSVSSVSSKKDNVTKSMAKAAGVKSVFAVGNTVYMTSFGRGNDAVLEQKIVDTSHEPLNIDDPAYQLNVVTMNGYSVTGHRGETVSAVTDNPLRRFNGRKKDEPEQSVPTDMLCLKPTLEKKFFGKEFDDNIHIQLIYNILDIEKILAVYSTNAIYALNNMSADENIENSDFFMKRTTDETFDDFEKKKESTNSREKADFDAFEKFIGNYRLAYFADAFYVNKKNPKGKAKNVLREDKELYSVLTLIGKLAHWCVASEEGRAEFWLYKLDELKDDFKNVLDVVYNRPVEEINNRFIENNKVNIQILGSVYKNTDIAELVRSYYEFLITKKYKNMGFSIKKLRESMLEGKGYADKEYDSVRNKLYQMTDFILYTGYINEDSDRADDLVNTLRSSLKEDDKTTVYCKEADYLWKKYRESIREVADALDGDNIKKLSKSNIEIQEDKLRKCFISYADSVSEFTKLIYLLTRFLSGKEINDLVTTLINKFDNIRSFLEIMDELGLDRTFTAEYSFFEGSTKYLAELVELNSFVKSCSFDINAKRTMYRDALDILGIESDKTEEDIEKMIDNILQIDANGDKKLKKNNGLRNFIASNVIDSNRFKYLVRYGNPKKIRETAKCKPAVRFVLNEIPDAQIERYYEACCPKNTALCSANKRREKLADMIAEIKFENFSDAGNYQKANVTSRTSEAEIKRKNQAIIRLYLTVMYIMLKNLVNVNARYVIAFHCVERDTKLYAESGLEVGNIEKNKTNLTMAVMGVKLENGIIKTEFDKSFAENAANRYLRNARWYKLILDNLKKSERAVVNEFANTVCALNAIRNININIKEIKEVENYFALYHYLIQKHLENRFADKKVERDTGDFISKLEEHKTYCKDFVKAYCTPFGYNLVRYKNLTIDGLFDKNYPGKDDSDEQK
Assay: crRNA (strand 1, pre-loaded); Mg2+; 40 mM Tris-HCl pH 7.5, 150 mM NaCl, 6 mM MgCl2, 1 mM DTT, 0.1% Tween-20, 0.2 mg/ml BSA; 25 C; 10 min per concentration, then washed
Settings: tags: His6-TwinStrep-SUMO cleaved; N-terminal SNAP kept (SNAP-Surface 488); label: 3' end held by stalled T7 RNA polymerase
# strict inequality: Kd < 20 nM yields Y, everything else yields N

target 3 G4A,G19U (mixed) RNA 1: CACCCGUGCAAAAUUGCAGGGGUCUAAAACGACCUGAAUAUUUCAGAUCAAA RNA 2: GGGAAUGGAUCCACAUCUACGAAUUCGUUUUUUAUCUGAAAUAUUCAAGUCUGCAGAUCGGAAGAGCACACGU	N
target 1 insU 3' of 20,insG 3' of 10 (mixed) RNA 1: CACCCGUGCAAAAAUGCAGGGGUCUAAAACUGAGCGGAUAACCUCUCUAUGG RNA 2: GGGAAUGGAUCCACAUCUACGAAUUCGUACCAUUAGAGAGGUUGAUCCGCUCACCGAGAUCGGAAGAGCACACGU	N

Is it true that Kd reported for target 1 U8G,A16G (mixed) RNA 1: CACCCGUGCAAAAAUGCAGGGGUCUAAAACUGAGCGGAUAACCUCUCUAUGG RNA 2: GGGAAUGGAUCCACAUCUACGAAUUCGUACCAUAGGGAGGUUAGCCGCUCACCGAGAUCGGAAGAGCACACGU is less than 20 nM?
N

Here's an entry: target 1 C7A,G15A (mixed) RNA 1: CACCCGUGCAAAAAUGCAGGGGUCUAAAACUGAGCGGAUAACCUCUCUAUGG RNA 2: GGGAAUGGAUCCACAUCUACGAAUUCGUACCAUAGAAAGGUUAUACGCUCACCGAGAUCGGAAGAGCACACGU . Is its Kd below 20 nM?
Y

I'd appreciate it if you could check whether target 2 MT 5'PFS CUU 3'PFS UUA (mixed) RNA 1: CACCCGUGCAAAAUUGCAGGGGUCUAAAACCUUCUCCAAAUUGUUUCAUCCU RNA 2: GGGAAUGGAUCCACAUCUACGAAUUCCUUAGGAUGAAACAAUUUGGAGAAGUUAAGAUCGGAAGAGCACACGU has Kd smaller than 20 nM.
Y

I wonder whether target 2 MT 5'PFS AGC 3'PFS CUG (mixed) RNA 1: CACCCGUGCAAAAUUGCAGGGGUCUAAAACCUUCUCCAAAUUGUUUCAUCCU RNA 2: GGGAAUGGAUCCACAUCUACGAAUUCAGCAGGAUGAAACAAUUUGGAGAAGCUGAGAUCGGAAGAGCACACGU has Kd below 20 nM. Can you tell?
Y

I wonder whether target 1 insC 3' of 12,insG 3' of 10 (mixed) RNA 1: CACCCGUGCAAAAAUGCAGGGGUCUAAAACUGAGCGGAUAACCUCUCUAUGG RNA 2: GGGAAUGGAUCCACAUCUACGAAUUCGUACCAUAGAGAGGCUUGAUCCGCUCACCGAGAUCGGAAGAGCACACGU has Kd below 20 nM. Can you tell?
Y

Please check: Kd for target 1 insC 3' of 20,insA 3' of 10 (mixed) RNA 1: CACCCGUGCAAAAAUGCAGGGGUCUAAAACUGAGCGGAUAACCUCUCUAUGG RNA 2: GGGAAUGGAUCCACAUCUACGAAUUCGUACCACUAGAGAGGUUAAUCCGCUCACCGAGAUCGGAAGAGCACACGU , strictly under 20 nM or not?
Y
